- tested-target: T1, SpPot1-DBD (Schizosaccharomyces pombe, UniProt O13988 1-389)
- T1 sequence: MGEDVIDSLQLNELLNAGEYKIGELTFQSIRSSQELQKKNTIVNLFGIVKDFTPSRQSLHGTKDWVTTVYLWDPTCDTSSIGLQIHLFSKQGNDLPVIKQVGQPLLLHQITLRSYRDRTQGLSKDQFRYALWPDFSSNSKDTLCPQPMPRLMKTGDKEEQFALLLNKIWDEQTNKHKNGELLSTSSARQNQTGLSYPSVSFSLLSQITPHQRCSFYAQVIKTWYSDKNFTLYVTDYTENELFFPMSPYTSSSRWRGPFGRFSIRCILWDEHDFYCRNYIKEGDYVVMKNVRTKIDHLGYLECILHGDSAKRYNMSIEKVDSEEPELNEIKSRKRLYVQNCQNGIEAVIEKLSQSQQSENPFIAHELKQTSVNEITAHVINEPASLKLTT
- protocol-details: EMSA
test-readout: Kd (nM)
Answers are plain numbers, in nM.

# Kd (binder: GGTTACGGTTACGGT (ssDNA) [15mer] ) is 0.0103
